experiment: A Quantitative High throughput Screen to Identify Chemical Modulators of PINK1 Expression; conditions: PINK1 immunofluorescence, high-content cytometry, 24 h; series mostly up to 76.6 µM; note: nearly all actives have a fitted effect of over 65% in size
The campaign covered roughly 410,000 compounds. About 820 (0.2%) were called active. Another 2% or so got no clear call; they are omitted. Calls come from the whole dose curve; as a rule, active = well fitted activation curve with a large enough effect; inconclusive = small, poorly fitted or top-dose-only effect; inactive = flat fitted curve, though single readings scatter; cell line not stated here. The sample as a whole holds a higher share of actives than the screen did.
Outcomes: active, inactive

molecule=COc1cc(=O)n2c(c1C(=O)N(C)Cc1nccs1)CCN(Cc1ccc(Cl)cc1)CC2 class_label=inactive
molecule=COCCCNC(=O)/C(C#N)=C/c1c(N2CCCCCC2)nc2ccccn2c1=O class_label=inactive
molecule="CCc1noc(C)c1C(=O)NCCN1Cc2cc(OC)ccc2OC(CC)C1 (stereo not drawn)" class_label=inactive
molecule=CC(C)(C(=O)NO)c1ccccc1 class_label=inactive
molecule=C(=Nc1ccc(/C=C/c2ccnc3ccccc23)cc1)c1cc2c3c(c1)CCCN3CCC2 class_label=inactive
molecule=O=C(CNc1cccc(S(=O)(=O)N2CCCCC2)c1)Nc1ccccc1F class_label=inactive
molecule=Cc1c(S(=O)(=O)O)oc2c1C(=O)C(=O)c1c-2ccc2c1CCCC2(C)C class_label=inactive
molecule=Cc1ccc(NC(=O)CCC(=O)N2CCC(c3ccccc3)=N2)cc1S(=O)(=O)N1CCCCC1 class_label=active
molecule="CC(=O)c1ccc(NC(=O)C(C)NCc2ccc(Cl)cc2)cc1 (stereo not drawn)" class_label=inactive
molecule=COc1ccccc1-c1ccnc(-n2ncc(C(=O)NCCc3ccncc3)c2C)n1 class_label=inactive
molecule=COc1ccccc1CNC(=O)C1CCN(c2nc3ccccc3o2)CC1 class_label=active
molecule=O=C(c1cccnc1)N1CCN(S(=O)(=O)c2cccs2)CC1 class_label=inactive
molecule="CC1(C(=O)NCCc2c[nH]c3ccccc23)C=CC2(CCCCC2)N1C(=O)c1ccccc1 (stereo not drawn)" class_label=inactive
molecule=CN(C)c1ccc(/C=C/c2sc3ccccc3[n+]2C)cc1 class_label=active
molecule="COc1ccc(CN2CCOc3c(cc(-c4ncc(C(F)(F)F)cc4Cl)cc3OCC3CCCO3)C2)c(O)c1 (stereo not drawn)" class_label=inactive
molecule="CCOC(=O)c1c(NC(=O)/C=C/c2ccc(OC)cc2)sc2c1CCC(C)C2 (stereo not drawn)" class_label=inactive
molecule="CCc1nc2cc(C(=O)NCC3CCS(=O)(=O)C3)cc(NC(=O)c3ccccc3OC)c2n1C (stereo not drawn)" class_label=inactive
molecule="CCC1CN(CCNC(=O)c2ccsc2)Cc2cc(OC)ccc2O1 (stereo not drawn)" class_label=inactive
molecule=O=C(Nc1nnc(S(=O)(=O)N2CCCc3ccccc32)s1)c1cccc(F)c1 class_label=inactive
molecule=CCOC(=O)N1CCN(Cc2ccc3c(c2)CN(C(=O)c2cccc(-n4cccn4)c2)CCO3)CC1 class_label=inactive
molecule="COc1ccc(CN2CCC3(CCC(CNC(=O)c4ccco4)O3)CC2)cc1OC (stereo not drawn)" class_label=inactive
molecule="COCC(C)NC(=O)c1ccc(-n2nc(C(F)(F)F)cc2-c2cccs2)cc1 (stereo not drawn)" class_label=inactive
molecule=O=C(Nc1ccc(N2CCN(C(=O)c3ccccc3)CC2)c(Cl)c1)c1cccnc1 class_label=inactive
molecule="O=C(c1cn(CC2CCCN(Cc3cc4ccccc4s3)C2)nn1)N1CCCC1 (stereo not drawn)" class_label=inactive
molecule=Cc1ccc(NC(=O)COC(=O)C2CC2)cc1S(=O)(=O)N1CCOCC1 class_label=inactive
molecule=CN(C)C(=O)[C@@H]1C[C@@H](Sc2nc3ccccc3[nH]2)CN1Cc1ccc(Cl)cc1 class_label=inactive
molecule=COc1ccccc1-c1ccnc(-n2ncc(C(=O)NCCCN3CCOCC3)c2C)n1 class_label=inactive
molecule="O=C(CCN1Cc2ccccc2OC(c2ccccc2)C1)N[C@@H]1CS(=O)(=O)C[C@H]1O (stereo partly drawn)" class_label=inactive
molecule=COc1ccc2oc(=O)c(-c3cn4c(n3)sc3cc(OC)ccc34)cc2c1 class_label=inactive
molecule=O=C(Nc1nnc(S(=O)(=O)N2CCOCC2)s1)c1cccc(Br)c1 class_label=inactive
molecule=Cc1oc(-c2cccc(NC(=O)c3ccccc3)c2)nc1CNC(=O)c1cnc2ccccn2c1=O class_label=inactive
molecule=O=C(Nc1ccccc1C(F)(F)F)c1nc(S(=O)(=O)Cc2ccccc2F)ncc1Cl class_label=inactive
molecule=CCCc1cc(=S)n2c([nH]c3ccccc32)c1C#N class_label=active
molecule=CCOC(=O)N1CCC(N2CCOc3ccc(CN4CCC(O)(c5cccnc5)CC4)cc3C2)CC1 class_label=inactive
molecule=CN(Cc1cccc2ncccc12)C(=O)c1cnn(-c2nccc(-c3ccccc3F)n2)c1C1CC1 class_label=inactive
molecule=N#Cc1ccc(C(=O)Nc2nc(-c3cccs3)c(C(=O)C(F)(F)F)s2)cc1 class_label=active
molecule="CN1CCCCCC1C(=O)NCCN1Cc2ccccc2OC(c2ccsc2)C1 (stereo not drawn)" class_label=inactive
molecule="Cc1ccc(OCC(O)CN2CCN(CC(O)COc3ccc(C)cc3Cl)CC2)c(Cl)c1 (stereo not drawn)" class_label=active

----------
experiment: A Quantitative High throughput Screen to Identify Chemical Modulators of PINK1 Expression; conditions: PINK1 immunofluorescence, high-content cytometry, 24 h; series mostly up to 76.6 µM; note: nearly all actives have a fitted effect of over 65% in size
Among all 410,000 compounds or so, about 820 (0.2%) were called active. About 2% were inconclusive and are not listed. Calls follow the shape of the dose curve; as a rule, active = well fitted activation curve with a large enough effect; inconclusive = small, poorly fitted or top-dose-only effect; inactive = flat fitted curve, though single readings scatter; cell line not stated here. Shown is part of a subset that was picked to be rich in actives.
Outcomes: active, inactive

molecule=COc1ccc2c(c1)CCc1cnc(-n3ncc(C(=O)NCCN4CCOCC4)c3C)nc1-2 class_label=inactive
molecule=CCC(=O)Nc1cccc(NC(=O)CSc2nnc(-c3ccc(NS(C)(=O)=O)cc3)n2C)c1 class_label=inactive
molecule=COc1ccc(C(=O)N2CCC3(CC2)CCN(c2ccccn2)CC3)cc1 class_label=inactive
molecule=CC(C)(C)c1ccc(C(=O)C[n+]2cccc3cc(Cl)ccc32)cc1 class_label=inactive
molecule=COc1cc(=O)n2c(c1C(=O)N(C)Cc1nonc1C)CCN(C(=O)c1ccc(C)cc1C)CC2 class_label=inactive
molecule=CCN1CC=C2C(C#N)=C(N)C(C#N)(C#N)[C@H](c3ccoc3)[C@H]2C1 class_label=active
molecule="FC(F)(F)c1cccc(-c2cn[nH]c2C2CCCN(Cc3cccn3-c3ccccn3)C2)c1 (configuration not stated)" class_label=inactive
molecule=Cc1ncc2c(c1CNS(=O)(=O)N(C)C)CCN(C(=O)c1ccccc1F)C2 class_label=inactive
molecule=O=C(NCCN1CCOCC1)c1cnn(-c2nccc(-c3cccs3)n2)c1C1CC1 class_label=inactive
molecule="CC(=O)c1ccc(F)c(-c2cc(C)cc3c2OC(CNC(=O)Cc2c[nH]c4ccccc24)C3)c1 (configuration not stated)" class_label=inactive
molecule=CCc1cccc(NC(=S)N(CCN(C)C)C2CCN(C(C)C)CC2)c1 class_label=inactive
molecule=CC1(C)Cc2ccccc2-c2c[nH]c(=O)n21 class_label=inactive
molecule=O=C(Nc1ccc([N+](=O)[O-])cc1)c1cnn2c1NC(=C1CC1)C=C2C(F)F class_label=inactive
molecule=COc1ccc(Oc2ncc3nc(-c4ccc(F)cc4)c(=O)n(C)c3n2)cc1 class_label=inactive
molecule="CCC1CN(CCNC(=O)c2cccnc2C)Cc2cc(OC)ccc2O1 (configuration not stated)" class_label=inactive
molecule="COC(=O)c1ccccc1-c1cc(C)cc2c1OC(CNC(=O)C1CCOC1)C2 (configuration not stated)" class_label=inactive
molecule="OCC1CCCN(c2nc3cc4c(cc3cc2CNCc2cccs2)OCO4)C1 (configuration not stated)" class_label=inactive
